Assay overview: LNP size and PDI by dynamic light scattering
Format: physicochemical
Condition: mRNA LNP, cationic lipid/DSPC/cholesterol/PEG-lipid 50:10:38.5:1.5
# binarize Size (nm): threshold 70 nm inclusive, high side class 1, low side class 0

Q. Assess whether reported Size (nm) for CCCCCCCCC(CCCCCC)COC(=O)CCCCCCCCCNC(=O)C(CCCCCCCC)N(CCCN(C)C)C(=O)CCCCCCCCCC(=O)OCC(CCCCCC)CCCCCCCC (centres unmarked) sits at 70 nm or higher.
A. class 1

Q. Assess whether reported Size (nm) for CCCCCCCCNC(=O)C(CCCCCCCC)N(CCCN(C)C)C(=O)CCCCCCC(=O)OC(CCCCCCCC)CCCCCCCC (centres unmarked) sits at 70 nm or higher.
A. class 1

Q. Assess whether reported Size (nm) for CCCCCCCC(C(=O)NCCCCCCCCCC(=O)OC(CCCCCC)CCCCCC)N(CCCN(CCO)CCO)C(=O)CCCCCCCCCC(=O)OC(CCCCCC)CCCCCC (centres unmarked) sits at 70 nm or higher.
A. class 1

Q. Assess whether reported Size (nm) for CCCCCCCC(C(=O)NCCCCCCCCCC(=O)OC(CCCCCC)CCCCCC)N(CCCN(C)CCO)C(=O)CCCCCCCCCC(=O)OC(CCCCCC)CCCCCC (centres unmarked) sits at 70 nm or higher.
A. class 0

Q. Assess whether reported Size (nm) for CCCCCCCCC(C(=O)NCCCCCCCCCC(=O)OCC12CC3CC(CC(C3)C1)C2)N(CCCN(C)C)C(=O)CCCCCCCCCC(=O)OC(CCCCCC)CCCCCC (centres unmarked) sits at 70 nm or higher.
A. class 1

Q. Assess whether reported Size (nm) for CCCCCCCCNC(=O)C(CCCCCCCC)N(CCN(C)CCO)C(=O)CCCCCCC(=O)OC(CCCCCCCC)CCCCCCCC (centres unmarked) sits at 70 nm or higher.
A. class 0

Q. Assess whether reported Size (nm) for CCCCCCCC(C(=O)NCCCCCCCCCC(=O)OC(CCCCCC)CCCCCC)N(CCNCCO)C(=O)CCCCCCCCCC(=O)OC(CCCCCC)CCCCCC (centres unmarked) sits at 70 nm or higher.
A. class 0

Q. Assess whether reported Size (nm) for CCCCCCCCC(C(=O)NCCCCCCCCCC(=O)OCC1CC=CCC1)N(CCCN(C)C)C(=O)CCCCCCCCCC(=O)OC(CCCCCC)CCCCCC (centres unmarked) sits at 70 nm or higher.
A. class 1

Q. Assess whether reported Size (nm) for CCCCCCC(CCCCCC)OC(=O)CCCCCCCCCNC(=O)CN(CCN(C)CCN(CC(=O)NCCCCCCCCCC(=O)OC(CCCCCC)CCCCCC)C(=O)CCCCCCCCCC(=O)OC(CCCCCC)CCCCCC)C(=O)CCCCCCCCCC(=O)OC(CCCCCC)CCCCCC sits at 70 nm or higher.
A. class 1

###

Assay overview: LNP size and PDI by dynamic light scattering
Assay type: physicochemical
Condition: mRNA LNP, cationic lipid/DSPC/cholesterol/PEG-lipid 50:10:38.5:1.5
# binarize PDI: threshold 0.2 inclusive, high side y, low side n

Illustrative cases are given below, each with its answer.
Q. Assess whether reported PDI for CCCCCCCCCCCNC(=O)C(CCCCCCCC)N(CCN(C)CCN(C(=O)CCCCCCCCCC(=O)OC(CCCCCC)CCCCCC)C(CCCCCCCC)C(=O)NCCCCCCCCCC)C(=O)CCCCCCCCCC(=O)OC(CCCCCC)CCCCCC (centres unmarked) sits at 0.2 or higher.
A. n

Q. Assess whether reported PDI for CCCCCCCC(C(=O)NCCCCCCCCCC(=O)OC(CCCCCC)CCCCCC)N(CCCN(CCO)C1CCC1)C(=O)CCCCCCCCCC(=O)OC(CCCCCC)CCCCCC (centres unmarked) sits at 0.2 or higher.
A. n

Q. Assess whether reported PDI for CCCCCCCC(C(=O)NCCCCCCCCCC(=O)OC(CCCCCC)CCCCCC)N(CCOC(=O)CCN1CCCC1)C(=O)CCCCCCCCCC(=O)OC(CCCCCC)CCCCCC (centres unmarked) sits at 0.2 or higher.
A. n

Q. Assess whether reported PDI for CCCCCCCCC(C(=O)NCCCCCCCCCC(=O)OCC1CC=CCC1)N(CCCN1CCCC1)C(=O)CCCCCCCCCC(=O)OC(CCCCCC)CCCCCC (centres unmarked) sits at 0.2 or higher.
A. y

Alright, here's another molecule for you.
Q. Assess whether reported PDI for CCCCCCCCC(CCCCCC)COC(=O)CCCCCCCCCNC(=O)C(CCCCCCCC)N(CCCN(C)C)C(=O)CCCCCCCCCC(=O)OCC(CCCCCC)CCCCCCCC (centres unmarked) sits at 0.2 or higher.
A. y

Where these numbers come from: patent US20260078099A1
